All figures here come from a protein production outcome set (Wang et al. 2014).

test: label from the status in PepcDB records
value.type: protein production

Guide cases for protein production, answers given:
Challenge: // returns reported protein production for input MGEMTLAFIEEQYKELDNLNNKENPAVLTRNTATGELLVRKIIPISFAPVLEELKKLSSNYLPKIEVMIPNGSELIVYEEYINGKNLADLMKVNAPFDADEVTGLMLMLSDALTELHTNAIIHRDIKPSNIMISSDGVLKLIDFDASRVFEVGKNQDTVNLGTIGYAAPEQYGYSQTDARSDIYSIGVLMLELLRGKNNLPDKETATSLEKIAMQAASFDPEQRFQTIQEFRTAIKNDSLGPTFVSELTNLSDFATIEDSADEINWATSTDEYEKDFIPWYKHIPGFRTGHTWKMVVAVLGYIFMAFGLFTPPTEGVKMNNIENFFANFFLIFPAFIIFTNLCGIWSKLPLLKSSSKGTRKVGIVVYIFVCIMIYGIYTEIFS
Response given: failed

Challenge: Please give the measured protein production for this sequence: MPKIPITLITGFLGSGKTSFLSEYLNQTDHQGVALIINEIGQAALDQRILSVQYCGEKMLYLNAGCVCCNKRLDLVESLKATLNNYEWHGEILRRIIIETTGLANPAPILWTILSDTFLGVHFEIQSVVACVDALNAREHLTNNEAKEQIVFADSVLLTKTDLQNDSAALTKLKERIQALNPSAEIFDKRAIDYESLFSRKNRARNFMPRMPKDSHSQGFETLSINFEGTMEWSAFGIWLSLLLHQYGTQILRIKGIIDIGSGFLVSINGVMHVIYPPKHILKDQNGSNLVFIMRHLEREKILNSLKGFKDFLGIKGFETQLEHHHHHH
Response given: not failed

Challenge: Quick one: protein production for MTESIVCHKCQEAITKRMITALGKTWHPEHFLCHHCDEQILDATFNVQSGEPVCNKCFVERYTYTCAGCKKPILEKTICAMGESWHEDCFCCGGACKKPLANQTFYERDGKPYCKKDYEDLFAARCAKCEKPITDSAVLAMNVKWHRDCFRCNKCENPITSQTFTIDGDKPVCPACNC ?
Response given: failed

Challenge: State the recorded protein production for this entry: MPVNSILGVFAKSPIKPLQEHMDKVYDCASLLVPFFEATITGNWDDAVQIRKQISLAEKQGDSLKREIRLTLPSGLFMPVERTDLLELLTQQDKIANKAKDISGRVIGRQLLIPQALQVPFIAYLQRCIDAVGLAQQVINELDDLLEAGFRGREVDFVAKMINELDIIEEDTDDLQIQLRRQLFALESELNPVDVMFLYKTIEWVGGLADLAERVGSRLELMLARV
Response given: not failed

Challenge: Need protein production, item MSVLSIVTVPDKRLSLCSEEVEKVDQSIRKLVDDMFETMHANQGLGLAAVQVGVHKRILVMNVPEEFEDSEDIENVEDKIEGYELYGGPYCIINPKIVDISQEKVKLKEGCLSVPGYFDYIVRPQRIAVQYLDYNGNECIIKAQGWLARCLQHEIDHLNGTVFLKYLSKFKRDFAIEKVKKKERTDLI
Response given: not failed

Challenge: Suppose we examine the sequence MRLVVLSDIHGNLGAFEAVLADIATQDVDDIISLGDNVGYGPDPGPVLRLLRQRGIDSVLGNHEAAIADRRRRRRFNSQSREALDLTEAWLDADGRACIASMPPVLLRHGCRFVHGMPPDSPFTYLFEFMGRRLPKVFTLFAEALCFVGHTHDLEVLRCDETGAVASVLLPTASPDVAGQMPPGPLPGPSPDATLATSPGAQPEGLTLSTASPRVTVQTLVLDAGARHLVNVGSVGQPRDGDPRAKYVVWDDTARTLTVRRVAYDVAAAVRRFAEAGVAQRYIDRLG ; what protein production value has been reported?
Response given: failed

Challenge: Please report the recorded protein production for MGSLMSGWDSRVRDPKSVRRCKSLTREEIDTFWKTKKKNEEEEHVQAFSKLVTQEGAQSQAKEKKSVDDLFENQSKSSGWWRKTYWAFLNEPREEEGRPNNYVSQFKVAHIAKIAGS .
Response given: failed

Challenge: Which protein production is reported for this sequence? MKLWENGTFYQMTAEGEQVSAVLTKNGQIHAVGEVADLKKQYATEIDETIDLEGKVVFPGFVDAHIHLLWYGQALERLNLNQTTTKKEALALEHHHHHH
Response given: not failed

Batch request: protein production per item, same order as input.
1. MNIVKLMVIIIYLIIGSALGIIIIPEIANDLGLQNSSFLKNHYVDGIIGSIFMFLIFGVFIRRVTNAIKGLEHFIMRRSAVEILFATIGLIIGLLISVMVSFILESIGNSIFNHFIPVIITILLCYFGFQFGLKKRDEMLMFLPENIARSMSQHTKSATPKIIDTSAIIDGRILEVIRCGFIDGNILIPQGVINELQIVADSNDSVKREKGKRGLDILNELYDLDYPTKVIHPTKTHSDIDTMLLKLAKQYHASIITTDFNLNKVCHVHGIKALNVNDLSEAIKPNVHQGDQLHILLTKMGKEPGQAVGYLDDGTMVVVDNAKNLIGSHVNLEVVSLLQTSSGRIVFAKKIEDTVSLLEHHHHHH
2. NLKVKGARDVFEYMKGRIPDETKEHLFVLFLSTKNQILRHETITIGTLTASLIHPREIFKAAIRESAHSIILVHNHPSGDVQPSNADKQVTSILKKAGDLLQIELLDHVIVGNNDWFSFRDHALL
3. CSEVNVVKERPKTDEHKSYSCSFKGCTDVELVAVICPYCEKNFCLRHRHQSDHDCEKLEVAKPRMAATQKLVR
4. LDALRRYHRQTLQELPMGVCSLAKDQEILMWNKAMEELTGIPAQHVVGSRLSTITNPWKDLLQGFINLPDEHLHKQHLALDGQTRWLNLHKAAIDEPLAPGNSGLVLLVEDLTETQTLEDKLVHSERLASIGRLAAGVAHEIGNPITGI
5. MVVVMNPEQIYGVSNIKSHIPVMLDIEESNYDAWRELFLTHCLSFDVMGHIDGTLLPTNANDVNWQKRDGIVKLSLYGTLTPKQFQGSFVTSSTSRDIWLRIKNQFRNNKDARALRLDSELRTKDIGDMRVADYYRKMKKLADSLRNVDVPVTDRNLVMYVLNGLNPKFDNIINVIKHRQPFPSFDDAATMLQEEEDRLKRAIKPNPTHVDHSSSSTVLACSEAPPVTNFQRSGGNQMGYRGRGRGNNIFRGRGGRFSYYNMPTFNSWNRPPFYQNSYQMWNHPWGYPPYVNTNGGNGLGLLGPRPAY

Response given:
failed
not failed
not failed
failed
failed

---

assay: label from the status in PepcDB records
value.type: protein production

Challenge: Look at this sequence and give its reported protein production. MEYKPMPYPIIDSHCHLDFPKFNPDREEAIQRARKAGVVGMVNSGISLKGNRISLELAEKNEDIHAALGLSPDIGREGSDKDINAILAQIEANAGKAVAIGEAGLDFQDCKTDEERRRQTASFKKVIELAKNLEKPLVVHARMAEAEVLELARDVDTVIYHCYSGSVETMKEIVDAGYYISLATLVCFSEHHQTLAAEVPPENLLLETDSPFLSPRRGRNEPAFIVDSIPVVAEYKEMEPAEIAKFATENARRVFKILEHHHHHH
Response given: failed

Challenge: For MFIREEEQMKRMIITIGRQSGSSGRKVGELLAERLSLPLYGKAELQKIAEGTDDYEEVQAFYEEEPVNSLLYAIAMSQFEQEVGRIPFQRIRELASKESCIIIGRCAGHIFREDPEAVRVFIHADPKIRVQRIMEREGLSETKAKKFLEDTDSRRASFHKYYTKQEWGLAQDYELCLDSGVLGIEGTVEVLTEYLRFRGFLGNE , what is its reported protein production?
Response given: failed

Challenge: protein production lookup needed for SDPDADRVGIACKNDKGEWVLINGNQTCLMYLYYIITQYNKLGKMTGNEFCVKTIVTTELIKKIADKNHIEMLDCYTGFKWIAREIRLREGKKKYIGGGEESYGFLAEDFVRDKDAVSACCLIAEVAAWAKDNGKTLYQLLMDIYVEYGFSKE , thanks.
Response given: failed

Challenge: Fill blank: measured protein production of the sequence MGHHHHHHSHMFASCHCVPRGRRTMKMIHFRSSSVKSLSQEMRCTIRLLDDSEISCHIQRETKGQFLIDHICNYYSLLEKDYFGIRYVDPEKQRHWLEPNKSIFKQMKTHPPY is ____.
Response given: failed

Challenge: Quick one: protein production for MRELTSNEMNNVSGGDLASRLEASIVGSVAGFFAGSIWGGTRGGDGGGILGVGSIGQGVGMIYGGIAGAIGGAIGAFVIDKTLTYTYTTGFMNSLFSGTFAK ?
Response given: failed

Challenge: Endpoint output: protein production of MENAPLLFQLPDDDTLYQALLARDPAYEGFAFVGVKSTGVFCRLTCAARKPKRENTVFFGSIKGCVEAGFRACLRCRPLERAGVQEPWVQTLLEQLGRDPERRWYEDDLVAQGLDPSTVRRAFKRYFGVTFLEMARLRRMGQGMQQLASGEPVIEAQISAGFDSDSGFRHAFSRLAGQPPSNLRGRELLKVDWLQTPIGVMLAVADAQVLHLLEFFDRPALANELQNLQKSSGSSIGFGRFAPIDQIEAELQRYFAGEAVHFATPLAMSASPFTRTVWQALRAIPLGTTCSYAEVARQVGSPSAVRAVARANAANQISIVIACHRVIGADGSLTGYGGGLWRKRWLLEHERRLHHLQGASASGL . Value?
Response given: failed

Challenge: Any idea what its protein production is? The sequence is MFLTAVNPQPLSTPSWQIETKYSTKVLTGNWMEERRKFTRDTDKTPQSIYRKEYIPFPDHRPDQISRWYGKRKVEGLPYKHLITHHQEPPHRYLISTYDDHYNRHGYNPGLPPLRTWNGQKLLWLPEKSDFPLLAPPTNYGLYEQLKQRQLTPKAGLKQSTYTSSYPRPPLCAMSWREHAVPVPPHRLHPLPHF
Response given: failed

Challenge: Consider the sequence shown here: MAEEEVGNSQRQSEEIEAMAAIYGEEWCVIDENAKIFCIRVTDFMDDPKWTLCLQVMLPSEYPGTAPPSYQLNAPWLKGQERADLSNSLEEIYVHNMGESILYQWVEKIRDALIQKSQITEPDPDVKKKTEEVEVESEEDPILEHPPENPVKTLDLKISEETQPETEELPPVAHGVPITDRRSTFQAHVAPVVCPEQVKLVLAKLYENKKIASATHNIYAYRIFCEDKQTFLQDCEDDGETAAGGRLLHLMEILNVKNVMVVVSRWYGGILLGPDRFKHINNCARNILVEKNFTNTPDESTKNLGKKKVKKDKKKNDH What is its recorded protein production?
Response given: failed

Go through the list and state protein production for each entry.
1. MVLEIGLPPLHVGFIMAYSLLAASLSIFLGLALAEFDVVAHAVLAGYYAGLFFPMSVYTNFFTAAASGAPRPAKEYLPLLLAFILAAVAPLHGSTSTLATLFLLSQAFLLYYMALQAGRFRRDALARFSALAPPISGTGASLILLSSSQLGFLDALMSLTLAFSTPVPLLMAPMAIGASIYGLGPARGKEAIIRLSPALTAIPASILSVLTLSINPYLLPLSLYLVVMRPWRIVSELISVRRPKPPQLYLLSVHAATLAAIVSSLILASNSNIVEAGHAIMIGVIAPHALLHSIVRGGEIPFTRRPRSWTPIPPLLLAASTPLRFASKEASLALALLALSIHVASILDPHPRNIIPRAFRVEGGKQQSATTGG
2. MLKSILKVAVISTIGLSTVACTVNDQRIARYGVGGAAIGALAGTAIAGSTPEAALTGAAVGAIAGSVTGAAVNQQRQQRQRQQRQIVAPHPAMCTYRNRKGQVYSAPCAQKVQTPQLCTYRDGRGVMYQAPCPQRVR
3. MLVTGVARQLGGRFVRRIQRDPNVDRVIAVDAVRPEHHLGGADFIQADIRQPTIARVLAEHSVDTVVHMDVTGTALGTGSRATVKETNVIGTMQLLGACQKSPTVKRLVVKSSTNVYGSAPRDPAVFTETTPPKSLPSGGFAKDTVEVEGYVRGFARRRPDVAVCVLRFANILGPSADSPLASYFSLPVLPTVFGYDPRLQFAHEDDVIDVLRIASYEPRRGTLNSGTFNVAGDGVLLLSQCARRLGRPTVPLLLPAVTWVGSAVRTLGMTDFSPEQIRLLTHGRVVATNQMRETLGYVPKYTTAETFADFARSRGPGLLPPEALAGAVDRIAALPALGGGHPPTQSAN
4. MSLKDKKILIVEDSKFQAKTIANILNKYGYTVEIALTGEAAVEKVSGGWYPDLILMDIELGEGMDGVQTALAIQQISELPVVFLTAHTEPAVVEKIRSVTAYGYVMKSATEQVLITIVEMALRLYEANVHANEGHHHHHH
5. MNFVLSDVADAEAEKAIRDPLVAYNLARFGESDKRDLNITIRNDDNSVTGGLVGHTARGWLYVQLLFVPEAMRGQGIAPKLLAMAEEEARKRGCMGAYIDTMNPDALRTYERYGFTKIGSLGPLSSGQSITWLEKRF

Response given:
1. failed
2. failed
3. failed
4. not failed
5. not failed
